# targetOfAssay: recombinant human OX40 fused to a His-tag (Acro Biosystems, cat. no. OX0-H5224) (human) (UniProt P43489)
# Sequence (P43489 29-214 limits assumed): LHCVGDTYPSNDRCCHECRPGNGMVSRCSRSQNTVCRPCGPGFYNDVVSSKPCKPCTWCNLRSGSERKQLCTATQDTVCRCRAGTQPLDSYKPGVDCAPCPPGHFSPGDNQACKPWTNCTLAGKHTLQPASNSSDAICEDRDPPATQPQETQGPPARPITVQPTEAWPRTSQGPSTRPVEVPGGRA
# measurementProtocol: BLI cross-block; first Ab (competitor): IgG1-CD134-11D4
# key: entry, value: association response
Answer in nm, number only, no unit symbol.

Recorded association response, per entry:
INSERT INTO measurements (binder, outcomemeasure, valueobserved) VALUES
  ('IgG1-CD134-GBR830 (antibody, INN chains, looked up, V domains shown, IgG1) VH: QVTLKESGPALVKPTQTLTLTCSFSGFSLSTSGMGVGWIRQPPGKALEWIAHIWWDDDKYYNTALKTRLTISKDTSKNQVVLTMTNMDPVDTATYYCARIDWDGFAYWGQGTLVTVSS VL: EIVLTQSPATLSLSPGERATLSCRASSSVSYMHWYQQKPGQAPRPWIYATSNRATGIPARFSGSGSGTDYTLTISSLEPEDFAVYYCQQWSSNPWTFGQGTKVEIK', 'association response', 0.13),
  ('IgG1-CD134-RG7888 (antibody, INN chains, looked up, V domains shown, IgG1) VH: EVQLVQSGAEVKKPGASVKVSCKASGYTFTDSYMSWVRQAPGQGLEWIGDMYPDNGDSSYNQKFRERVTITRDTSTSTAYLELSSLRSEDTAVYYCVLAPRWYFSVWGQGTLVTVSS VL: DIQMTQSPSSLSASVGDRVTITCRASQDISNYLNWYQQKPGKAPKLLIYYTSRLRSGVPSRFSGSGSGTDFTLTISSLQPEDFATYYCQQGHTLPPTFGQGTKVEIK', 'association response', 0.11),
  ('IgG1-CD134-MEDI0562 (antibody, INN chains, looked up, V domains shown, IgG1) VH: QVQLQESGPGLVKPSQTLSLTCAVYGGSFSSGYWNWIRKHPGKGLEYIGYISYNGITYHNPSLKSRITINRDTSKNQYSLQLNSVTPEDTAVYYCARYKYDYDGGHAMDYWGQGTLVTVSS VL: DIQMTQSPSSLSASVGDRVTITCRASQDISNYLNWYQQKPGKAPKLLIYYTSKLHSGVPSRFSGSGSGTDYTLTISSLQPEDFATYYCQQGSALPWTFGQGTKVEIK', 'association response', 0.14);

--- query ---
Asked: I'd like to know its association response. The binder in question is IgG1-CD134-Hu106 (antibody, from another filing, V domains shown) VH: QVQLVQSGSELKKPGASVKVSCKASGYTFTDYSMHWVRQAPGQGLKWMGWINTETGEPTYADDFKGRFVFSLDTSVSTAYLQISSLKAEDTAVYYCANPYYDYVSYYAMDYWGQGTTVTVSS VL: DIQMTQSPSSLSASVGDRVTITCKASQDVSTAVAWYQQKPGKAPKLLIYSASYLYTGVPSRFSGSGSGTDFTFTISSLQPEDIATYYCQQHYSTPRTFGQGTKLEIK
Given back: 0.13
